This collection of values is drawn from ChEMBL document CHEMBL5584231.

Test system: MCF7
Protocol description: Induction of apoptosis in human MCF7 cells assessed as live cells at 1 times IC50 measured after 24 hrs by Annexin V-FITC staining based flow cytometry analysis (reference value: 92%)
Assay type: functional
Non-standard residues stand in square brackets, D forms with d. Residues, ends and D or L forms follow the SMILES beside them. Aad = N[C@@H](CCCC(=O)O)C(=O)O
Reported Activity values for a set of molecules
A number alone suffices; assume %.

Molecule: CC(C)C[C@H](NC(=O)[C@H](CCCCN)NC(=O)[C@H](CCCCN)NC(=O)[C@H](CC(C)C)NC(=O)[C@H](CC(C)C)NC(=O)[C@H](CCCCN)NC(=O)[C@H](CCCCN)NC(=O)[C@H](CC(C)C)NC(=O)[C@H](CC(C)C)NC(=O)[C@H](CCCCN)NC(=O)[C@H](CCCCN)NC(=O)[C@H](CC(C)C)NC(=O)[C@@H](N)CC(C)C)C(=O)N[C@@H](CCCC(=O)O)C(N)=O (H-LLKKLLKKLLKKL[Aad]-NH2)
Activity, %: 55.9
//
Molecule: CC(=O)O[C@H]1C(=O)[C@@]2(C)[C@H]([C@H](OC(=O)c3ccccc3)[C@]3(O)C[C@H](OC(=O)[C@H](O)[C@@H](NC(=O)c4ccccc4)c4ccccc4)C(C)=C1C3(C)C)[C@]1(OC(C)=O)CO[C@@H]1C[C@@H]2O [PACLITAXEL]
Activity, %: 30.2
//
Molecule: CC(C)C[C@H](NC(=O)[C@H](CCCCN)NC(=O)[C@H](CCCCN)NC(=O)[C@H](CC(C)C)NC(=O)[C@H](CC(C)C)NC(=O)[C@H](CCCCN)NC(=O)[C@H](CCCCN)NC(=O)[C@H](CC(C)C)NC(=O)[C@H](CC(C)C)NC(=O)[C@H](CCCCN)NC(=O)[C@H](CCCCN)NC(=O)[C@H](CC(C)C)NC(=O)[C@@H](N)CC(C)C)C(=O)N[C@@H](CCC(=O)O)C(N)=O (H-LLKKLLKKLLKKLE-NH2)
Activity, %: 57.2

Given the molecule CC(C)C[C@H](NC(=O)[C@H](CC(C)C)NC(=O)[C@H](CCCCN)NC(=O)[C@H](CCCCN)NC(=O)[C@H](CC(C)C)NC(=O)[C@H](CC(C)C)NC(=O)[C@H](CCCCN)NC(=O)[C@H](CCCCN)NC(=O)[C@H](CC(C)C)NC(=O)[C@H](CC(C)C)NC(=O)[C@H](CCCCN)NC(=O)[C@H](CCCCN)NC(=O)[C@H](CC(C)C)NC(=O)[C@@H](N)CC(C)C)C(N)=O (H-LLKKLLKKLLKKLL-NH2) , write its reported Activity.
58.1

----------
Protocol description: Stability in mouse serum assessed as compound remaining at 10 mM incubated for 6 hrs by RP-HPLC analysis
Assay type: ADME, cell-free
Test settings: read-out: Stability
Non-standard residues stand in square brackets, D forms with d. Residues, ends and D or L forms follow the SMILES beside them. Aad = N[C@@H](CCCC(=O)O)C(=O)O
Listing of recorded remaining at 6 h, 10000 µM by entry.

Worked set:
Molecule: CC(C)C[C@H](NC(=O)[C@H](CCCCN)NC(=O)[C@H](CCCCN)NC(=O)[C@H](CC(C)C)NC(=O)[C@H](CC(C)C)NC(=O)[C@H](CCCCN)NC(=O)[C@H](CCCCN)NC(=O)[C@H](CC(C)C)NC(=O)[C@H](CC(C)C)NC(=O)[C@H](CCCCN)NC(=O)[C@H](CCCCN)NC(=O)[C@H](CC(C)C)NC(=O)[C@@H](N)CC(C)C)C(=O)N[C@@H](CCCC(=O)O)C(N)=O (H-LLKKLLKKLLKKL[Aad]-NH2)
remaining at 6 h, 10000 µM: > 60%
//
Molecule: CC(C)C[C@H](NC(=O)[C@H](CC(C)C)NC(=O)[C@H](CCCCN)NC(=O)[C@H](CCCCN)NC(=O)[C@H](CC(C)C)NC(=O)[C@H](CC(C)C)NC(=O)[C@H](CCCCN)NC(=O)[C@H](CCCCN)NC(=O)[C@H](CC(C)C)NC(=O)[C@H](CC(C)C)NC(=O)[C@H](CCCCN)NC(=O)[C@H](CCCCN)NC(=O)[C@H](CC(C)C)NC(=O)[C@@H](N)CC(C)C)C(N)=O (H-LLKKLLKKLLKKLL-NH2)
remaining at 6 h, 10000 µM: > 60%

// below: remaining at 6 h, 10000 µM requested for another molecule
Please indicate remaining at 6 h, 10000 µM recorded for CC(C)C[C@H](NC(=O)[C@H](CCCCN)NC(=O)[C@H](CCCCN)NC(=O)[C@H](CC(C)C)NC(=O)[C@H](CC(C)C)NC(=O)[C@H](CCCCN)NC(=O)[C@H](CCCCN)NC(=O)[C@H](CC(C)C)NC(=O)[C@H](CC(C)C)NC(=O)[C@H](CCCCN)NC(=O)[C@H](CCCCN)NC(=O)[C@H](CC(C)C)NC(=O)[C@@H](N)CC(C)C)C(=O)N[C@@H](CCC(=O)O)C(N)=O (H-LLKKLLKKLLKKLE-NH2)
> 60%

----------
Protocol description: Therapeutic index, ratio of HC10 for mouse RBC to IC50 for cytotoxicity against RG cells (unknown origin)
Type: toxicity, cell-based
Test settings: mouse RBC and RG cells, read-out: TI
Non-standard residues stand in square brackets, D forms with d. Residues, ends and D or L forms follow the SMILES beside them. Dip = N[C@H](C(=O)O)C(c1ccccc1)c1ccccc1; Asu = N[C@@H](CCCCCC(=O)O)C(=O)O; Aad = N[C@@H](CCCC(=O)O)C(=O)O
Measured endpoint: selectivity ratio
# print the numeric value only

Reference set, count: 8
Compound: CC(C)C[C@H](NC(=O)[C@H](CCCCN)NC(=O)[C@H](CCCCN)NC(=O)[C@H](CC(C)C)NC(=O)[C@H](CC(C)C)NC(=O)[C@H](CCCCN)NC(=O)[C@H](CCCCN)NC(=O)[C@H](CC(C)C)NC(=O)[C@H](CC(C)C)NC(=O)[C@H](CCCCN)NC(=O)[C@H](CCCCN)NC(=O)[C@H](CC(C)C)NC(=O)[C@@H](N)CC(C)C)C(=O)N[C@@H](CCCC(=O)O)C(N)=O (H-LLKKLLKKLLKKL[Aad]-NH2)
selectivity ratio: 12.7
//
Compound: CC(C)C[C@H](NC(=O)[C@H](CC(C)C)NC(=O)[C@H](CCC(=O)O)NC(=O)[C@H](CCCCN)NC(=O)[C@H](CC(C)C)NC(=O)[C@H](CC(C)C)NC(=O)[C@H](CCCCN)NC(=O)[C@H](CCCCN)NC(=O)[C@H](CC(C)C)NC(=O)[C@H](CC(C)C)NC(=O)[C@H](CCCCN)NC(=O)[C@H](CCCCN)NC(=O)[C@H](CC(C)C)NC(=O)[C@@H](N)CC(C)C)C(N)=O (H-LLKKLLKKLLKELL-NH2)
selectivity ratio: 0.838
//
Compound: CC(C)C[C@H](NC(=O)[C@H](CC(C)C)NC(=O)[C@H](CCCCN)NC(=O)[C@H](CCCCN)NC(=O)[C@H](CC(C)C)NC(=O)[C@H](CC(C)C)NC(=O)[C@H](CCC(=O)O)NC(=O)[C@H](CCCCN)NC(=O)[C@H](CC(C)C)NC(=O)[C@H](CC(C)C)NC(=O)[C@H](CCCCN)NC(=O)[C@H](CCCCN)NC(=O)[C@H](CC(C)C)NC(=O)[C@@H](N)CC(C)C)C(N)=O (H-LLKKLLKELLKKLL-NH2)
selectivity ratio: 1.1
//
Compound: CC(C)C[C@H](NC(=O)[C@H](CC(C)C)NC(=O)[C@H](CCCCN)NC(=O)[C@H](CCCCN)NC(=O)[C@H](CC(C)C)NC(=O)[C@H](CC(C)C)NC(=O)[C@H](CCCCN)NC(=O)[C@H](CCCCN)NC(=O)[C@H](CC(C)C)NC(=O)[C@H](CC(C)C)NC(=O)[C@H](CCCCN)NC(=O)[C@H](CCCCN)NC(=O)[C@H](CC(C)C)NC(=O)[C@@H](N)CCC(=O)O)C(N)=O (H-ELKKLLKKLLKKLL-NH2)
selectivity ratio: 1.15
//
Compound: CC(C)C[C@H](NC(=O)[C@H](CC(C)C)NC(=O)[C@H](CCCCN)NC(=O)[C@H](CCCCN)NC(=O)[C@H](CC(C)C)NC(=O)[C@H](CC(C)C)NC(=O)[C@H](CCCCN)NC(=O)[C@H](CCCCN)NC(=O)[C@H](CC(C)C)NC(=O)[C@H](CC(C)C)NC(=O)[C@H](CCCCN)NC(=O)[C@@H](N)CCCCN)C(=O)N[C@@H](CCCCN)C(N)=O (H-KKLLKKLLKKLLK-NH2)
selectivity ratio: 5.36
//
Compound: CC(C)C[C@H](NC(=O)[C@H](CC(C)C)NC(=O)[C@H](CCCCN)NC(=O)[C@H](CCCCN)NC(=O)[C@H](CC(C)C)NC(=O)[C@H](CC(C)C)NC(=O)[C@H](CCCCN)NC(=O)[C@H](CCCCN)NC(=O)[C@H](CC(C)C)NC(=O)[C@H](CCC(=O)O)NC(=O)[C@H](CCCCN)NC(=O)[C@H](CCCCN)NC(=O)[C@H](CC(C)C)NC(=O)[C@@H](N)CC(C)C)C(N)=O (H-LLKKELKKLLKKLL-NH2)
selectivity ratio: 7.14
//
Compound: CC(C)C[C@H](NC(=O)[C@H](CC(C)C)NC(=O)[C@H](CCCCN)NC(=O)[C@H](CCCCN)NC(=O)[C@H](CCC(=O)O)NC(=O)[C@H](CC(C)C)NC(=O)[C@H](CCCCN)NC(=O)[C@H](CCCCN)NC(=O)[C@H](CC(C)C)NC(=O)[C@H](CC(C)C)NC(=O)[C@H](CCCCN)NC(=O)[C@H](CCCCN)NC(=O)[C@H](CC(C)C)NC(=O)[C@@H](N)CC(C)C)C(N)=O (H-LLKKLLKKLEKKLL-NH2)
selectivity ratio: 6.34
//
Compound: CC(C)C[C@H](NC(=O)[C@H](CCCCN)NC(=O)[C@H](CCCCN)NC(=O)[C@H](CC(C)C)NC(=O)[C@H](CC(C)C)NC(=O)[C@H](CCCCN)NC(=O)[C@H](CCCCN)NC(=O)[C@H](CC(C)C)NC(=O)[C@H](CC(C)C)NC(=O)[C@H](CCCCN)NC(=O)[C@H](CCCCN)NC(=O)[C@H](CC(C)C)NC(=O)[C@@H](N)CC(C)C)C(=O)N[C@@H](CCCCCC(=O)O)C(N)=O (H-LLKKLLKKLLKKL[Asu]-NH2)
selectivity ratio: 6.3

Look up and report measured selectivity ratio for this entry: CC(C)C[C@H](NC(=O)[C@H](CCCCN)NC(=O)[C@H](CC(C)C)NC(=O)[C@H](CC(C)C)NC(=O)[C@H](CCCCN)NC(=O)[C@H](CCCCN)NC(=O)[C@H](CC(C)C)NC(=O)[C@H](CC(C)C)NC(=O)[C@H](CCCCN)NC(=O)[C@H](CCCCN)NC(=O)[C@H](CC(C)C)NC(=O)[C@H](CC(C)C)NC(=O)[C@H](CCCCN)NC(=O)[C@H](CCCCN)NC(=O)[C@H](CC(C)C)NC(=O)[C@H](CC(C)C)NC(=O)[C@H](CCCCN)NC(=O)[C@@H](N)CCCCN)C(N)=O (H-KKLLKKLLKKLLKKLLKL-NH2)
0.686

Specify selectivity ratio for NCCCC[C@H](NC(=O)[C@@H](NC(=O)[C@H](Cc1c[nH]c2ccccc12)NC(=O)[C@H](CCCCN)NC(=O)[C@H](CCCCN)NC(=O)[C@H](Cc1c[nH]c2ccccc12)NC(=O)[C@H](Cc1c[nH]c2ccccc12)NC(=O)[C@H](CCCCN)NC(=O)[C@@H](N)CCCCN)C(c1ccccc1)c1ccccc1)C(N)=O [RUXOTEMITIDE] (H-KKWWKKW[Dip]K-NH2) and stop.
3.6
